Target: T1, human MSLN on OVCAR3 tumor cells (human, UniProt Q13421 296-598)
T1 construct: whole, on cells; also called human MSLN protein
T1 sequence (Q13421 other isoform, or with tags, fused parts or gaps): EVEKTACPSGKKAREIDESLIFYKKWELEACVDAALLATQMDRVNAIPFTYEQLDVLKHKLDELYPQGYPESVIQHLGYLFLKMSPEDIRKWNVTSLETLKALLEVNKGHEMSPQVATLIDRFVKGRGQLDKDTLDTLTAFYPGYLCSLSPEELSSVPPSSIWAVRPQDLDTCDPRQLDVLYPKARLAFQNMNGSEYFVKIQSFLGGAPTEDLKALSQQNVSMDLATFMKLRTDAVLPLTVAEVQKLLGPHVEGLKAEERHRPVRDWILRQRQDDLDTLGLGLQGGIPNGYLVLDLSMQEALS
Assay: FACS, OVCAR3 cells
metric.name: EC50 (nM)
Give the number; nM is assumed, so skip it.

Notebook: F7.44.20-H3 (scFv, not shown: small tags and cut ends, also called S009-F7.44.20 humanized antibody VH1 + VL3) scFv: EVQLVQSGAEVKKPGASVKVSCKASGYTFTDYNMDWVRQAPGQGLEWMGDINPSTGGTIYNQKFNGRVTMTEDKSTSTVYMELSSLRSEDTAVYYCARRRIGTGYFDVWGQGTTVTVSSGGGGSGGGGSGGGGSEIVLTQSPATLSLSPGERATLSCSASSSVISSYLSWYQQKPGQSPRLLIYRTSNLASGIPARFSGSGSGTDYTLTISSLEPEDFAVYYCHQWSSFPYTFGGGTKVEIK , EC50 read as 0.69

---
The reported value for F7.44.20-H15 (scFv, not shown: small tags and cut ends, also called S009-F7.44.20 humanized antibody VH2a + VL3) scFv: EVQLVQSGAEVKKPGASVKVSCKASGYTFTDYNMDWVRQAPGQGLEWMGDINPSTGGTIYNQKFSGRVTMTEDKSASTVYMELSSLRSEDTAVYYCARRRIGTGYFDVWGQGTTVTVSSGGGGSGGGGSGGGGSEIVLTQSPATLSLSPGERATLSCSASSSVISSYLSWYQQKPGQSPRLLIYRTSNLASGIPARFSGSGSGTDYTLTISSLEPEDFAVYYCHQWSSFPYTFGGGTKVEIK in terms of EC50 is 1.77

Entry under test: F7.44.20-H12 (scFv, not shown: small tags and cut ends, also called S009-F7.44.20 humanized antibody VH2 + VL4) scFv: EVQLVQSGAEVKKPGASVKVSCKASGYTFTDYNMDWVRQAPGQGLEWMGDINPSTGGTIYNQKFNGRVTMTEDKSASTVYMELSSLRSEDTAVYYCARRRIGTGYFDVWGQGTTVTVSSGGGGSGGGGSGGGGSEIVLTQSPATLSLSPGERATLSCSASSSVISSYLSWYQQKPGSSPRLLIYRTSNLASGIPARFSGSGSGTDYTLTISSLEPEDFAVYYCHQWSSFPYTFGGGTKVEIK . Its EC50 was 1.5
